- tested.system: PDGFRβ (Homo sapiens)
- Construct: made in house
- Sequence (P09619 33-1106): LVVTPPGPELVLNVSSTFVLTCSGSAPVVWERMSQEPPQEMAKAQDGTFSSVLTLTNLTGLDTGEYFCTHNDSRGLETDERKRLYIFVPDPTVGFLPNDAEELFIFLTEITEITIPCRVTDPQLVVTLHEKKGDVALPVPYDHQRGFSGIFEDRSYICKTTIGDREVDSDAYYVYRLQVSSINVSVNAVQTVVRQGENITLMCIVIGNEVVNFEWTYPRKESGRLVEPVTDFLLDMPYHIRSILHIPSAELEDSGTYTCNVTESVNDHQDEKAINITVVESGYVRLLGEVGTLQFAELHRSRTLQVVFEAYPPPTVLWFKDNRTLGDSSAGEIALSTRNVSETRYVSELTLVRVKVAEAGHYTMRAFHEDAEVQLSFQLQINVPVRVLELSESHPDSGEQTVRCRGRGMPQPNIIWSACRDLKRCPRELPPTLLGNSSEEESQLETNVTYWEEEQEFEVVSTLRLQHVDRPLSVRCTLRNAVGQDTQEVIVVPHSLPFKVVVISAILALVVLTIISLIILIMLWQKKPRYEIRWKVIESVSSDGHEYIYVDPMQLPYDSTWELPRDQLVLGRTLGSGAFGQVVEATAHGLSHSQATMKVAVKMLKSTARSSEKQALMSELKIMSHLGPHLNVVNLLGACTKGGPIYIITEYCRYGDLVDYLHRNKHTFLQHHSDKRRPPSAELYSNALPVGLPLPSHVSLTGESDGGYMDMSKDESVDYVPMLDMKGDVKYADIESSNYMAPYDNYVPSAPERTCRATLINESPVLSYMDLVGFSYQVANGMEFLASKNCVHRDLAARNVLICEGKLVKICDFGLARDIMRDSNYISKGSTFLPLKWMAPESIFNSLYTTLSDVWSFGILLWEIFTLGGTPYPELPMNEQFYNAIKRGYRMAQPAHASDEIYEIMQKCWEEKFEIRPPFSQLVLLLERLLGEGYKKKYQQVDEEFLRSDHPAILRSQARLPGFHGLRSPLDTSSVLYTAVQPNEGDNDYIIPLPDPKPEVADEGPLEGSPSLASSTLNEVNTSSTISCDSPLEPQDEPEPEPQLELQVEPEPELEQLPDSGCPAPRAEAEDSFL
- test.summary: Competition binding assay, PDGFRβ Kd
pKd: −log10 of the molar value.
I'd be grateful if you could share measured pKd for these entries.

[
  {
    "chemical.structure": "COc1ccc2ncn(Cc3ccc4nc(N[C@@H]5CCCC[C@H]5O)sc4c3)c2c1",
    "endpoint.value": "6.30 to 7.30"
  },
  {
    "chemical.structure": "O[C@@H]1CCCC[C@H]1Nc1nc2ccc(Cn3cnc4cc(C5CC5)cnc43)cc2s1",
    "endpoint.value": "≥ 7.30"
  },
  {
    "chemical.structure": "COc1cc2ncn(Cc3ccc4nc(NC5CCOCC5)sc4c3)c2cc1OC",
    "endpoint.value": "< 5.70"
  },
  {
    "chemical.structure": "COc1ccn2c(Cc3ccc4nc(N[C@@H]5CCCC[C@H]5O)sc4c3)cnc2c1",
    "endpoint.value": "5.70 to 6.30"
  },
  {
    "chemical.structure": "COc1cc2ncn(Cc3ccc4nc(N[C@@H]5CCCC[C@H]5O)sc4c3)c2cc1C#N",
    "endpoint.value": "6.30 to 7.30"
  }
]

Required: pKd, one value per compound below.
1. COc1cc2ncn(Cc3ccc4nc(NCc5ccncc5)sc4c3)c2cc1OC
2. O[C@@H]1CCCC[C@H]1Nc1nc2ccc(Cn3cnc4cc(-c5cccnc5)cnc43)cc2s1
3. COc1cc2ncn(Cc3ccc4nc(N[C@@H]5CCCC[C@H]5O)sc4c3)c2cc1Br
4. COc1ccc2ncn(Cc3ccc4nc(N[C@@H]5CCCC[C@H]5O)sc4c3)c2n1
5. COc1cc2ncn(Cc3ccc4nc(NC[C@H]5CCCO5)sc4c3)c2cc1OC

Result:
1. < 5.70
2. ≥ 7.30
3. 6.30 to 7.30
4. 6.30 to 7.30
5. 5.70 to 6.30

Taken from patent US9938261B2.
